Biological target: T1, EsCas13d, nuclease-dead (Eubacterium siraeum, UniProt B0MS50, R295A;H300A;R849A;H854A)
T1 sequence: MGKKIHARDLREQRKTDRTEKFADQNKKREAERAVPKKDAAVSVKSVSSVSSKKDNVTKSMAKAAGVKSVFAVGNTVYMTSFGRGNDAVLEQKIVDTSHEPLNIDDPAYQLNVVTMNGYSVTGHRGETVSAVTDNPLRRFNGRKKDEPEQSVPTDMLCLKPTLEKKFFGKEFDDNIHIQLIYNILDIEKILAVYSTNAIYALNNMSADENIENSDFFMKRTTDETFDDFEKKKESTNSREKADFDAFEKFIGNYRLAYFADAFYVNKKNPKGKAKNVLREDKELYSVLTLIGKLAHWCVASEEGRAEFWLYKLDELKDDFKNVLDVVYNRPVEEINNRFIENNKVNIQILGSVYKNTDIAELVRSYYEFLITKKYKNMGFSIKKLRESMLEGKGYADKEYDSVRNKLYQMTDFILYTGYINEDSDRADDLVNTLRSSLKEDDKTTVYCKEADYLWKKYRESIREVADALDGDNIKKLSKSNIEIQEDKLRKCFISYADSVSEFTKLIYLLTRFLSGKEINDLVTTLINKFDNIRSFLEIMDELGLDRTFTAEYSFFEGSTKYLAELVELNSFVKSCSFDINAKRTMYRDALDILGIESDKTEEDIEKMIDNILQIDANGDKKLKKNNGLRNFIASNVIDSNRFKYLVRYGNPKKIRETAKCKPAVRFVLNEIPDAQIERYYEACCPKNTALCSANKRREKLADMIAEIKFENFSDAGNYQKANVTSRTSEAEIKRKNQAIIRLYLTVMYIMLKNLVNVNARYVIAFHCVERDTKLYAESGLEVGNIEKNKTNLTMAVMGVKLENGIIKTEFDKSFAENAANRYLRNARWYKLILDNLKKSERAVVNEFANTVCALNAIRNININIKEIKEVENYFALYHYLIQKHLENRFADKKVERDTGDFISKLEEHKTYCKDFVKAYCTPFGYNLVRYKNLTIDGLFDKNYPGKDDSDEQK
Assay: crRNA (strand 1, pre-loaded); Mg2+; 40 mM Tris-HCl pH 7.5, 150 mM NaCl, 6 mM MgCl2, 1 mM DTT, 0.1% Tween-20, 0.2 mg/ml BSA; 25 C; 10 min per concentration, then washed
Settings: tags: His6-TwinStrep-SUMO cleaved; N-terminal SNAP kept (SNAP-Surface 488); label: 3' end held by stalled T7 RNA polymerase
readout type: Kd (nM)

target 1 U3C,C6U (mixed) RNA 1: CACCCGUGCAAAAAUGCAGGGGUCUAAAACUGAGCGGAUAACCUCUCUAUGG RNA 2: GGGAAUGGAUCCACAUCUACGAAUUCGUACCAUAGAGAGGUUAUCUGCCCACCGAGAUCGGAAGAGCACACGU	14.4
target 2 MT 5'PFS CUG 3'PFS UUA (mixed) RNA 1: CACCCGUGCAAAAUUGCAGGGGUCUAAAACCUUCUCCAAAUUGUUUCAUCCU RNA 2: GGGAAUGGAUCCACAUCUACGAAUUCCUGAGGAUGAAACAAUUUGGAGAAGUUAAGAUCGGAAGAGCACACGU	4.7
target 1 G15U,C22A (mixed) RNA 1: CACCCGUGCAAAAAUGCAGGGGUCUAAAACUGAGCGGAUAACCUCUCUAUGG RNA 2: GGGAAUGGAUCCACAUCUACGAAUUCGUAACAUAGAUAGGUUAUCCGCUCACCGAGAUCGGAAGAGCACACGU	40
target 3 G4U,U22C (mixed) RNA 1: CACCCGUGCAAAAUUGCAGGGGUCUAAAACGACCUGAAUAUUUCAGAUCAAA RNA 2: GGGAAUGGAUCCACAUCUACGAAUUCGUUCUUGAUCUGAAAUAUUCAUGUCUGCAGAUCGGAAGAGCACACGU	4.65
target 3 insA 3' of 2,insG 3' of 2 (mixed) RNA 1: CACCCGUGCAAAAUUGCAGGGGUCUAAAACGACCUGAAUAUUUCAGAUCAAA RNA 2: GGGAAUGGAUCCACAUCUACGAAUUCGUUUUUGAUCUGAAAUAUUCAGGUAGCUGCAGAUCGGAAGAGCACACGU	20.9
target 2 MT 5'PFS AUA 3'PFS AGG (mixed) RNA 1: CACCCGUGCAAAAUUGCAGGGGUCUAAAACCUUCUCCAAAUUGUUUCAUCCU RNA 2: GGGAAUGGAUCCACAUCUACGAAUUCAUAAGGAUGAAACAAUUUGGAGAAGAGGAGAUCGGAAGAGCACACGU	7.6
target 2 MT 5'PFS CUG 3'PFS AGU (mixed) RNA 1: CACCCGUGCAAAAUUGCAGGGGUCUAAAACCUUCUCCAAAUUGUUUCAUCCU RNA 2: GGGAAUGGAUCCACAUCUACGAAUUCCUGAGGAUGAAACAAUUUGGAGAAGAGUAGAUCGGAAGAGCACACGU	3.7
target 1 C7U (mixed) RNA 1: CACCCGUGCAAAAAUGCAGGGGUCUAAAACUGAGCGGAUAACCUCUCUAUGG RNA 2: GGGAAUGGAUCCACAUCUACGAAUUCGUACCAUAGAGAGGUUAUUCGCUCACCGAGAUCGGAAGAGCACACGU	7.5
